Tested on: c-Abl (mouse)
Assay: phosphorylation enrichment, bacterial display (enrichment ratio); higher = better substrate or ligand; peptides without Tyr show the background;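 also: 11-residue human phosphosite peptides and single-mutation variants displayed on the E. coli surface, counted by deep sequencing, each peptide's frequency after selection divided by its frequency in the unselected input library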;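 also: frequency after pTyr selection over input frequency; kinase dosed for 20-30% of maximal phosphorylation in three min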
quantity name: phosphorylation enrichment
Just the number, please.

>>> observed_result("GREFIYVDPMQ [PDGFRA_Y574_H570R_YF]")
3.31
>>> observed_result("SDPIVYTLENI [EMR1_Y534_I533V]")
0.873
>>> observed_result("SAGSSYSISSI [PAX5_Y179_G183S]")
0.583
>>> observed_result("SADIAYNYRHG [PAH_Y166_F161S]")
0.508
>>> observed_result("FTFDPYSEEEP [IL2RB_Y387_D391E_YF]")
0.733

Which phosphorylation enrichment value is on record for SKAYAYVHFDS [PABPC5_Y149_G146A] ? 0.789

Which phosphorylation enrichment value is on record for EKEKKYMLPLD [DNM2_Y563] ? 0.589

Which phosphorylation enrichment value is on record for WEQELYSQLVF [WAS_Y102_YF] ? 1.81

Which phosphorylation enrichment value is on record for ESSKAYERALS [TTC37_Y1074] ? 0.618

Which phosphorylation enrichment value is on record for LLLLFCVVRYC [MPZ_Y177_Y177C] ? 4.58

Which phosphorylation enrichment value is on record for QRALLYEDALF [UNC13D_Y56_YF] ? 0.878

----------
Quick reference: phosphorylation enrichment of the listed items.
Target: Hck (UniProt P08631)
Sequence (P08631 whole entry, looked up): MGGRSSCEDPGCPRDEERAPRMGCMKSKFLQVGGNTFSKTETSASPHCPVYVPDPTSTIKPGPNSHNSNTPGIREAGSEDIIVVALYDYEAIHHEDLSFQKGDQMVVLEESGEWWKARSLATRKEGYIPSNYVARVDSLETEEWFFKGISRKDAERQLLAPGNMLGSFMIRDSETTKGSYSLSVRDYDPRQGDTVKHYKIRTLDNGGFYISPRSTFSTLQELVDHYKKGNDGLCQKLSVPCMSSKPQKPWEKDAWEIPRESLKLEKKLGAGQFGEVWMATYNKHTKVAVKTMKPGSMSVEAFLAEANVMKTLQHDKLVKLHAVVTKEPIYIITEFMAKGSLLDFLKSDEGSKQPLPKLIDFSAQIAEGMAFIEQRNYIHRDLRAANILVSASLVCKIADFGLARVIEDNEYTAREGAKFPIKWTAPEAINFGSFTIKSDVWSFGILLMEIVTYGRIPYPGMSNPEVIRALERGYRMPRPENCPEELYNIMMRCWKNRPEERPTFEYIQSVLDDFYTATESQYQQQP
Assay: phosphorylation enrichment, bacterial display (enrichment ratio); higher = better substrate or ligand; peptides without Tyr show the background

>>> observed_result("HNELFYEEAEH [VANGL1_Y345_YF]")
0.974
>>> observed_result("SNMPTYSGHFS [GRIN2A_Y1224_T1229S]")
1.48
>>> observed_result("LLNPSYNLPLD [TOM1L1_Y109_R108S]")
1.07
>>> observed_result("QDIMAYRGREV [BCL6_Y157]")
0.448
>>> observed_result("ALCHFYKLNII [ETV6_Y402_R399C_YF]")
0.544

Which phosphorylation enrichment value is on record for RPQDGFRIVQH [PTPRT_Y1329_Y1329F] ? 0.532

Which phosphorylation enrichment value is on record for AKRKGYDMQVD [NEB_Y2770_R2773Q] ? 0.363

Which phosphorylation enrichment value is on record for QDEHGYIFRCF [HSPB1_Y133_S135F] ? 0.735

Which phosphorylation enrichment value is on record for PARLEYCENEK [IRS1_Y46_Y47C] ? 1.04

Which phosphorylation enrichment value is on record for LSIDRYHAIVF [NPSR1_Y147_YF] ? 0.861

----------
Molecular target: Fes (UniProt P07332)
Sequence (P07332 whole entry, looked up): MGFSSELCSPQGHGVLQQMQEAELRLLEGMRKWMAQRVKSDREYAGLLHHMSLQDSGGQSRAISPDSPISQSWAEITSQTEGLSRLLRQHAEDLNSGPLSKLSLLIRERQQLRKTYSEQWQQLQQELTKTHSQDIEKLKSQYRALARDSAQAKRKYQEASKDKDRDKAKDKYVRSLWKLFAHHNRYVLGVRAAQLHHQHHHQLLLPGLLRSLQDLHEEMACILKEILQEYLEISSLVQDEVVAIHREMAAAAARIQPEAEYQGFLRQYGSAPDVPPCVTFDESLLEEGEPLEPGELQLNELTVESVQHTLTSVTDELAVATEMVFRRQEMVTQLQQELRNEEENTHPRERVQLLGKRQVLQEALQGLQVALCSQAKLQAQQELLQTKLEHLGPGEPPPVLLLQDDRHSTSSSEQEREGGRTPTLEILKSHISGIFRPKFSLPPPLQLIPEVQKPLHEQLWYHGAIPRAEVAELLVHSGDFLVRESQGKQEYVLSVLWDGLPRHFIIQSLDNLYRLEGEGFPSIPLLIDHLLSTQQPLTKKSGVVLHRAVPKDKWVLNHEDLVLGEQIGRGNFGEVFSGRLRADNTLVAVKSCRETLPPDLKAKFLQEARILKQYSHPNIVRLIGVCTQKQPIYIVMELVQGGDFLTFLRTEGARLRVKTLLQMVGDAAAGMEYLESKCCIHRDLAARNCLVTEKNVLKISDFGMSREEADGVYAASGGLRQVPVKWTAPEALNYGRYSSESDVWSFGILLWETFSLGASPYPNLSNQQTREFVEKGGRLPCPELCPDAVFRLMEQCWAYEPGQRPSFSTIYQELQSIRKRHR
Experiment: phosphorylation enrichment, bacterial display (enrichment ratio); higher = better substrate or ligand; peptides without Tyr show the background
Quick reference: phosphorylation enrichment of the listed items.
Just the number, please.

>>> observed_result("EWCSPYGLTPR [GRIN3B_Y601_R598C]")
1.02
>>> observed_result("THEVRYVSAGQ [SLCO4A1_Y77]")
0.773
>>> observed_result("GLAKEYTDPET [CSNK1G2_Y195_I196T]")
1.07
>>> observed_result("TTGLIYIGSHD [AASDH_Y870]")
0.759
>>> observed_result("VSVVDYVEPSP [TXNRD2_Y70_A66S]")
1.05

Which phosphorylation enrichment value is on record for ALHHPYGCDVE [ABL2_Y80_R78H] ? 0.998

Which phosphorylation enrichment value is on record for DLFRLYVCVKE [ARID1B_Y1091] ? 1.52

Which phosphorylation enrichment value is on record for SVVVPHEPPEV [TP53_Y220_Y220H] ? 0.949

Which phosphorylation enrichment value is on record for NFFEFYVDDPP [GCHFR_Y48_YF] ? 1.28

Which phosphorylation enrichment value is on record for VGTKQYMAPEV [ACVRL1_Y375_R374Q] ? 0.754
